- Test system: lipid peroxidation in rat liver microsomes
- experimentDescription: Inhibition of ascorbate/ADP-FeCl3-induced lipid peroxidation in rat liver microsomes (TBA reactive material)
- Format: biochemical, rat (Sprague-Dawley)
- details: rat liver microsomes 1.2 mg protein/ml, pH 6.0, 20 min at 37° C., read-out: IC50 values for the inhibition of microsomal lipid peroxidation, initiated by Ascorbate/ADP-FeCl3
Would you mind telling me the reported IC50 of each entry?
Could you write the number and then its unit?

Query :: Any idea what its IC50 is? The molecule is `CN(C)CCOc1ccc(/C(=C(/CCI)c2ccccc2)c2ccccc2)cc1`
Result :: 3 µM

Query :: Any idea what its IC50 is? The molecule is COc1ccc(O)c(C(C)(C)C)c1 [butylated hydroxyanisole]
Result :: 0.2 µM

Query :: Any idea what its IC50 is? The molecule is Cc1c(C)c2c(c(C)c1O)CCC(C)(CCCC(C)CCCC(C)CCCC(C)C)O2 (centres unmarked)
Result :: 43 µM

Query :: Any idea what its IC50 is? The molecule is `CN(C)CCOc1ccc(/C(=C(/CCCl)c2ccccc2)c2ccccc2)cc1`
Result :: 18 µM

Query :: Any idea what its IC50 is? The molecule is `CN(C)CCOc1ccc(/C(=C(/CCCl)c2ccccc2)c2ccc(O)cc2)cc1`
Result :: 8 µM

Query :: Any idea what its IC50 is? The molecule is `CNCCOc1ccc(/C(=C(/CCCl)c2ccccc2)c2ccc(O)cc2)cc1`
Result :: 31 µM

Query :: Any idea what its IC50 is? The molecule is `CN(C)CCOc1ccc(/C(=C(\CCCl)c2ccccc2)c2ccccc2)cc1`
Result :: 36 µM

Query :: Any idea what its IC50 is? The molecule is `C[C@]12CC[C@@H]3c4ccc(O)cc4CC[C@H]3[C@@H]1CC[C@@H]2O`
Result :: 300 µM

====

Would you mind telling me the reported IC50 of each entry?
- testedSystem: NADPH oxidase of the neutrophils (Homo sapiens, UniProt P04839)
- Construct: Neutrophils were isolated from 30 ml freshly drawn heparinized whole blood; endogenous in cells; host or cells: neutrophils isolated from freshly drawn heparinized whole blood
- Sequence (P04839 2-570 limits assumed): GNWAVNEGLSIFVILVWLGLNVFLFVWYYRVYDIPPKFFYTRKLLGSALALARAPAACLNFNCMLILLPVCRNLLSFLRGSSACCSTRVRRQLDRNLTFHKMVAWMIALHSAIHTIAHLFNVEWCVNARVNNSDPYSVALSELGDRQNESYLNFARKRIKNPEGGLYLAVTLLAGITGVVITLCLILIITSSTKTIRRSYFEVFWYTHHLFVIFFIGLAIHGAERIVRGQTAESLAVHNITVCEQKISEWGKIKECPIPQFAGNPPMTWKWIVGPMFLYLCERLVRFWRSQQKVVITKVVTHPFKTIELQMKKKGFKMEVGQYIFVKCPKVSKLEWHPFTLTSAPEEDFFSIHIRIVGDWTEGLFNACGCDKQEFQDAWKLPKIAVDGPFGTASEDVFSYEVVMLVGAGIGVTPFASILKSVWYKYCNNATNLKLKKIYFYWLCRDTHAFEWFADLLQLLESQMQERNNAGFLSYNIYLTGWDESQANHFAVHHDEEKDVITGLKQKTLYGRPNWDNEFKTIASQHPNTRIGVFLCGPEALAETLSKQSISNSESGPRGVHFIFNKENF
- Sequence (P13498 2-195 partner limits assumed): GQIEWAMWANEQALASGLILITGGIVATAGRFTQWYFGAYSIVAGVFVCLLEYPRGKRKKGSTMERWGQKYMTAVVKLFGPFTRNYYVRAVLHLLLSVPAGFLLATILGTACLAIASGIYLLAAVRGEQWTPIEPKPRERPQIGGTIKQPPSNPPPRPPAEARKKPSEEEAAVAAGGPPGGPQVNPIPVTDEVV
- experimentDescription: Inhibition of reactive oxygen production (oxidative burst) by PMA-activated neutrophils, luminol enhanced chemiluminescence
- Assay type: cell-based
- details: PMA 2 μM; 10^6 cells/ml; read-out: IC50, inhibition of NADPH oxidase of the neutrophils
Give the value in nM but do not write nM after it.

Query :: Any idea what its IC50 is? The compound is CN(C)CCOc1ccc(/C(=C(/CCI)c2ccccc2)c2ccccc2)cc1 [Compound 4]
Result :: 2320

Query :: Any idea what its IC50 is? The compound is CN(C)CCOc1ccc(/C(=C(/CCCl)c2ccccc2)c2ccc(O)cc2)cc1 [Compound 2]
Result :: 2120
